Provide the recorded selectivity ratio for the entries that follow.
- assaySummary: Selectivity index, ratio of CC50 for cytotoxicity against monkey LLC-MK2 cells to IC50 for antitrypanosomal activity against Trypanosoma cruzi Tulahuen amastigotes transfected with Escherichia coli beta-galactosidase LacZ gene infected in monkey LLC-MK2 cells
- Format: toxicity, cell-based
- settings: read-out: Ratio CC50/IC50

Lookup: Request the reported selectivity ratio associated with "O=[N+]([O-])c1ccc(-n2cc(Cn3cnc([N+](=O)[O-])n3)nn2)cc1"
Found: > 82

Lookup: Request the reported selectivity ratio associated with "COc1cc(-n2cc(Cn3cnc([N+](=O)[O-])n3)nn2)cc(OC)c1OC"
Found: > 17.3

Lookup: Request the reported selectivity ratio associated with "O=[N+]([O-])c1ncn(Cc2cn(-c3ccc(F)cc3)nn2)n1"
Found: > 45

Lookup: Request the reported selectivity ratio associated with "COc1ccc(-n2cc(Cn3cnc([N+](=O)[O-])n3)nn2)cc1"
Found: > 59.5

Lookup: Request the reported selectivity ratio associated with "O=[N+]([O-])c1ncn(Cc2cn(-c3cccc(C(F)(F)F)c3)nn2)n1"
Found: > 17.2

Lookup: Request the reported selectivity ratio associated with "O=[N+]([O-])c1ncn(Cc2cn(-c3ccccc3)nn2)n1"
Found: > 37

Lookup: Request the reported selectivity ratio associated with "O=C(O)c1cccc(-n2cc(Cn3cnc([N+](=O)[O-])n3)nn2)c1"
Found: > 1

Lookup: Request the reported selectivity ratio associated with "O=[N+]([O-])c1ncn(Cc2cn(-c3ccc(C(F)(F)F)cc3)nn2)n1"
Found: > 27.9

Lookup: Request the reported selectivity ratio associated with "O=[N+]([O-])c1ncn(Cc2cn(-c3ccc(Cl)cc3)nn2)n1"
Found: > 161

Lookup: Request the reported selectivity ratio associated with "O=[N+]([O-])c1ncn(Cc2cn(-c3ccc(F)c(F)c3)nn2)n1"
Found: > 4.4

Lookup: Request the reported selectivity ratio associated with "O=[N+]([O-])c1cccc(-n2cc(Cn3cnc([N+](=O)[O-])n3)nn2)c1"
Found: > 4.1

Lookup: Request the reported selectivity ratio associated with "O=[N+]([O-])c1ncn(Cc2cn(-c3ccc4c(c3)OCO4)nn2)n1"
Found: > 3.62

Lookup: Request the reported selectivity ratio associated with "CS(=O)(=O)c1ccc(-n2cc(Cn3cnc([N+](=O)[O-])n3)nn2)cc1"
Found: > 1

Lookup: Request the reported selectivity ratio associated with "O=[N+]([O-])c1ncn(Cc2cn(-c3ccc(OC(F)(F)F)cc3)nn2)n1"
Found: > 556

Lookup: Request the reported selectivity ratio associated with "COc1ccc(-n2cc(Cn3cnc([N+](=O)[O-])n3)nn2)cc1OC"
Found: > 44.6

Lookup: Request the reported selectivity ratio associated with "NS(=O)(=O)c1ccc(-n2cc(Cn3cnc([N+](=O)[O-])n3)nn2)cc1"
Found: > 1

Lookup: Request the reported selectivity ratio associated with "N#Cc1ccc(-n2cc(Cn3cnc([N+](=O)[O-])n3)nn2)cc1"
Found: > 34.5

Lookup: Request the reported selectivity ratio associated with "O=[N+]([O-])c1ncn(Cc2cn(-c3ccc(Oc4ccccc4)cc3)nn2)n1"
Found: > 714

Lookup: Request the reported selectivity ratio associated with "O=[N+]([O-])c1ncn(Cc2cn(-c3ccc(Cl)c(C(F)(F)F)c3)nn2)n1"
Found: > 5.05

Lookup: Request the reported selectivity ratio associated with "CCOC(=O)c1ccc(-n2cc(Cn3cnc([N+](=O)[O-])n3)nn2)cc1"
Found: > 1.3

Lookup: Request the reported selectivity ratio associated with "O=[N+]([O-])c1ncn(Cc2cn(-c3cccc(Cl)c3)nn2)n1"
Found: > 8.74

Lookup: Request the reported selectivity ratio associated with "COc1cccc(-n2cc(Cn3cnc([N+](=O)[O-])n3)nn2)c1"
Found: > 6.3

Lookup: Request the reported selectivity ratio associated with "COc1cc(OC)cc(-n2cc(Cn3cnc([N+](=O)[O-])n3)nn2)c1"
Found: > 227

Lookup: Request the reported selectivity ratio associated with "CSc1ccc(-n2cc(Cn3cnc([N+](=O)[O-])n3)nn2)cc1"
Found: > 238

Lookup: Request the reported selectivity ratio associated with "N#Cc1cccc(-n2cc(Cn3cnc([N+](=O)[O-])n3)nn2)c1"
Found: > 6.8

Lookup: Request the reported selectivity ratio associated with "O=C(O)c1ccc(-n2cc(Cn3cnc([N+](=O)[O-])n3)nn2)cc1"
Found: > 1

Lookup: Request the reported selectivity ratio associated with "Cc1ccc(-n2cc(Cn3cnc([N+](=O)[O-])n3)nn2)cc1"
Found: > 152

Lookup: Request the reported selectivity ratio associated with "O=[N+]([O-])c1ncn(Cc2cn(-c3ccc(Cl)c(Cl)c3)nn2)n1"
Found: > 454

Lookup: Request the reported selectivity ratio associated with "O=C(Cn1ccnc1[N+](=O)[O-])NCc1ccccc1"
Found: > 8.13

====

Provide the recorded pIC50 for the entries that follow.
- assaySummary: Substrate activity at Trypanosoma cruzi type I nitro reductase assessed as reduction in NADH incubated for 120 sec by spectrophotometric analysis
Please give only the number in your answer, with no unit.

Lookup: Request the reported pIC50 associated with "COc1ccc(-n2cc(Cn3cnc([N+](=O)[O-])n3)nn2)cc1OC"
Found: 5.95

Lookup: Request the reported pIC50 associated with "O=[N+]([O-])c1ncn(Cc2cn(-c3ccc(Oc4ccccc4)cc3)nn2)n1"
Found: 7.15

Lookup: Request the reported pIC50 associated with "COc1ccc(-n2cc(Cn3cnc([N+](=O)[O-])n3)nn2)cc1"
Found: 6.07

Lookup: Request the reported pIC50 associated with "Cc1ccc(-n2cc(Cn3cnc([N+](=O)[O-])n3)nn2)cc1"
Found: 6.48

Lookup: Request the reported pIC50 associated with "O=[N+]([O-])c1ncn(Cc2cn(-c3ccc(OC(F)(F)F)cc3)nn2)n1"
Found: 7.04

Lookup: Request the reported pIC50 associated with "O=[N+]([O-])c1ncn(Cc2cn(-c3ccc(Cl)c(Cl)c3)nn2)n1"
Found: 6.95

====

- Test system: Trypanosoma cruzi
- assaySummary: Antitrypanosomal activity against Trypanosoma cruzi Tulahuen amastigotes transfected with Escherichia coli beta-galactosidase LacZ gene infected in monkey LLC-MK2 cells assessed as inhibition of amastigotes growth incubated for 72 hrs by absorbance based microplate reader analysis
- Format: functional, organism-based
- settings: LLC-MK2, 72 h
reportedProperty: IC50 (µM)
Numeric answer only, unit µM assumed.

Lookup: Entry "COc1ccc(-n2cc(Cn3cnc([N+](=O)[O-])n3)nn2)cc1" , system Trypanosoma cruzi: what IC50 was measured?
Found: 0.84

Lookup: Entry "Cc1ccc(-n2cc(Cn3cnc([N+](=O)[O-])n3)nn2)cc1" , system Trypanosoma cruzi: what IC50 was measured?
Found: 0.33

Lookup: Entry "O=[N+]([O-])c1ncn(Cc2cn(-c3ccc(F)c(F)c3)nn2)n1" , system Trypanosoma cruzi: what IC50 was measured?
Found: 22.6

Lookup: Entry "COc1cc(OC)cc(-n2cc(Cn3cnc([N+](=O)[O-])n3)nn2)c1" , system Trypanosoma cruzi: what IC50 was measured?
Found: 0.22

Lookup: Entry "N#Cc1ccc(-n2cc(Cn3cnc([N+](=O)[O-])n3)nn2)cc1" , system Trypanosoma cruzi: what IC50 was measured?
Found: 1.45

Lookup: Entry "COc1cc(-n2cc(Cn3cnc([N+](=O)[O-])n3)nn2)cc(OC)c1OC" , system Trypanosoma cruzi: what IC50 was measured?
Found: 2.89

Lookup: Entry "O=[N+]([O-])c1ncn(Cc2cn(-c3cccc(C(F)(F)F)c3)nn2)n1" , system Trypanosoma cruzi: what IC50 was measured?
Found: 5.8

Lookup: Entry "N#Cc1cccc(-n2cc(Cn3cnc([N+](=O)[O-])n3)nn2)c1" , system Trypanosoma cruzi: what IC50 was measured?
Found: 7.35

Lookup: Entry "O=[N+]([O-])c1ncn(Cc2cn(-c3ccc(OC(F)(F)F)cc3)nn2)n1" , system Trypanosoma cruzi: what IC50 was measured?
Found: 0.09

Lookup: Entry "COc1ccc(-n2cc(Cn3ccnc3[N+](=O)[O-])nn2)cc1OC" , system Trypanosoma cruzi: what IC50 was measured?
Found: 0.65

Lookup: Entry "CSc1ccc(-n2cc(Cn3cnc([N+](=O)[O-])n3)nn2)cc1" , system Trypanosoma cruzi: what IC50 was measured?
Found: 0.21

====

- Tested on: Trypanosoma cruzi
- assaySummary: Antitrypanosomal activity against Trypanosoma cruzi Tulahuen amastigotes transfected with Escherichia coli beta-galactosidase LacZ gene infected in monkey LLC-MK2 cells assessed as inhibition of amastigotes growth incubated for 72 hrs by absorbance based microplate reader analysis
- Format: functional, organism-based
- settings: LLC-MK2, 72 h
Provide the recorded pIC50 for the entries that follow.
For clarity, pIC50 is expressed as the negative log10 of concentration in mol/L.

Lookup: Request the reported pIC50 associated with "O=[N+]([O-])c1ncn(Cc2cn(-c3ccc(Cl)c(Cl)c3)nn2)n1"
Found: 6.96

Lookup: Request the reported pIC50 associated with "O=[N+]([O-])c1ncn(Cc2cn(-c3ccc4c(c3)OCO4)nn2)n1"
Found: 4.86

Lookup: Request the reported pIC50 associated with "O=[N+]([O-])c1ncn(Cc2cn(-c3ccc(Oc4ccccc4)cc3)nn2)n1"
Found: 7.15

Lookup: Request the reported pIC50 associated with "O=[N+]([O-])c1ncn(Cc2cn(-c3cccc(Cl)c3)nn2)n1"
Found: 5.24
